- Tgt: CYP1A2 (Homo sapiens, UniProt P05177)
- Construct: tissue iPhase Pharmaceutical Services (Beijing, China) Lot # 7MMC011; host or cells: pooled human liver microsomes
- Sequence (P05177 1-516): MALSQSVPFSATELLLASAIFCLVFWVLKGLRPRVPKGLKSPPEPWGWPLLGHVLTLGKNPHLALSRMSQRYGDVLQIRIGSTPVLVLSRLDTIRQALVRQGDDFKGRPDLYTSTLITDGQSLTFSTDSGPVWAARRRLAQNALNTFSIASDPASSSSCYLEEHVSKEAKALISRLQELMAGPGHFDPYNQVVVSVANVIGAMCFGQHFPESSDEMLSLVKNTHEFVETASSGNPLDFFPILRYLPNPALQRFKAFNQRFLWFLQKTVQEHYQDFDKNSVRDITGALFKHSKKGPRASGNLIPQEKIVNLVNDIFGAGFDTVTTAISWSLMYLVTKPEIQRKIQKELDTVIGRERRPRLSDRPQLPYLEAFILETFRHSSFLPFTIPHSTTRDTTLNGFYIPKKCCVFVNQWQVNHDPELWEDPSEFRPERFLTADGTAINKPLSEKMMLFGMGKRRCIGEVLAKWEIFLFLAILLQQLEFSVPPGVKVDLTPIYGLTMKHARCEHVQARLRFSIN
- Assay: Inhibition of CYP activities by GA in HLMs (phenacetin)
- Type: biochemical
- Recorded Conditions: human, human liver microsomes, probe phenacetin (25 µM); CYP1A2-30min; GA 100.0000; vs control; read-out: Relative activity (%)
Endpoint Name: activity at 30 min, 100 µM
The reply should read as a number followed by its unit.

Looking for the measured activity at 30 min, 100 µM of CC1(C)[C@@H](O)CC[C@]2(C)[C@H]3C(=O)C=C4[C@@H]5C[C@@](C)(C(=O)O)CC[C@]5(C)CC[C@@]4(C)[C@]3(C)CC[C@@H]12 , can you help?
31%

====

- Assay: Toxicokinetics of BAK in rat plasma after a single oral dose
- Assay type: in vivo, Sprague–Dawley rats
- Recorded Conditions: Sprague-Dawley, plasma; rat, single oral; BAK 200 mg/kg, with ABT or GA 100 mg/kg where named
Endpoint Name: Cmax (ng/mL)
Reply numerically in ng/mL, unit not repeated.

Returns the measured Cmax for the input compound. Input: C=C[C@@](C)(/C=C/c1ccc(O)cc1)CCC=C(C)C
887

====

- Assay: HK-2 cell viability, MTT assay, with or without co-cultured HLMs
- Type: cell-based, human
- Recorded Conditions: human, BAK 90 µM, with HLM, raw data; read-out: cell viability(%), single values
Endpoint Name: viability at 4 h, 90 µM (%)
Expressed in %, but write only the number.

Record request: viability at 4 h, 90 µM value, item C=C[C@@](C)(/C=C/c1ccc(O)cc1)CCC=C(C)C
88.2

====

- Tgt: CYP1A2 (Homo sapiens, UniProt P05177)
- Construct: tissue iPhase Pharmaceutical Services (Beijing, China) Lot # 7MMC011; host or cells: pooled human liver microsomes
- Sequence (P05177 1-516): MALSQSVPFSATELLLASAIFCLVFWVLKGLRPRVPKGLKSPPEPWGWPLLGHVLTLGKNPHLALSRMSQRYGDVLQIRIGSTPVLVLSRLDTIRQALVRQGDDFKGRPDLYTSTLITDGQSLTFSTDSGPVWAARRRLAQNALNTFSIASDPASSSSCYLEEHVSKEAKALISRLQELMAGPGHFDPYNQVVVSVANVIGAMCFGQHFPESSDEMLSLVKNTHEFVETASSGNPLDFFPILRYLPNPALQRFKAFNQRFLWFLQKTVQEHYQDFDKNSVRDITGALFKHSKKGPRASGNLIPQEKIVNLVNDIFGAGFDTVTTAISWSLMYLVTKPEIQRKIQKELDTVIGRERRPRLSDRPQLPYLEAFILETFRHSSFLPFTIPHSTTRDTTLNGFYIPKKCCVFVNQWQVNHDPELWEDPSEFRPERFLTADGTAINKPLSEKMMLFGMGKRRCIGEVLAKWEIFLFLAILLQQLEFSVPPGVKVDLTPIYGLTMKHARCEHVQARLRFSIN
- Assay: Inhibition of CYP activities by GA in HLMs (phenacetin)
- Type: biochemical
- Recorded Conditions: human, human liver microsomes, probe phenacetin 25 µM; CYP1A2-30min; GA 312.5000; vs control; read-out: Relative activity (%)
Endpoint Name: activity at 30 min, 312.5 µM (%)
Only the number, expressed in %, is required.

I am curious: what activity at 30 min, 312.5 µM value has been reported for CC1(C)[C@@H](O)CC[C@]2(C)[C@H]3C(=O)C=C4[C@@H]5C[C@@](C)(C(=O)O)CC[C@]5(C)CC[C@@]4(C)[C@]3(C)CC[C@@H]12 ?
14.1

====

- Tgt: CYP2C19 (Homo sapiens)
- Construct: was investigated in HLMs; tissue iPhase Pharmaceutical Services (Beijing, China) Lot # 7MMC011; host or cells: pooled human liver microsomes
- Sequence (P33261 whole entry): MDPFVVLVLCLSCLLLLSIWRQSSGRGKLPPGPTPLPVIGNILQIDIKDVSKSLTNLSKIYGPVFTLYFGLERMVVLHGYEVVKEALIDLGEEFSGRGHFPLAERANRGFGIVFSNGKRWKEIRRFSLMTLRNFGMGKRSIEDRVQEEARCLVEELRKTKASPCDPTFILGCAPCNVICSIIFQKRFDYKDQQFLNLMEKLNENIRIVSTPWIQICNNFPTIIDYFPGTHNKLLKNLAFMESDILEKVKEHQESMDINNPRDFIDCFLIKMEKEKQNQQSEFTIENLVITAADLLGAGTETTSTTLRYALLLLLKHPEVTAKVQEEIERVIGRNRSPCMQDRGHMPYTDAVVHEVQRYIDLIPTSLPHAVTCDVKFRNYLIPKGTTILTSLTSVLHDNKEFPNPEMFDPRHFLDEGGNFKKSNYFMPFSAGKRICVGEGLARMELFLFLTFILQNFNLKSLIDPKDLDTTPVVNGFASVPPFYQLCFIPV
- Assay: Inhibition of CYP activities by GA in HLMs (mephenytoin)
- Format: biochemical
- Recorded Conditions: human, human liver microsomes, probe mephenytoin (25 µM); CYP2C19-30min; GA 312.5000; vs control; read-out: Relative activity (%)
Endpoint Name: activity at 30 min, 312.5 µM
Record the result as a number with its unit.

For the compound CC1(C)[C@@H](O)CC[C@]2(C)[C@H]3C(=O)C=C4[C@@H]5C[C@@](C)(C(=O)O)CC[C@]5(C)CC[C@@]4(C)[C@]3(C)CC[C@@H]12 [GA, Glycyrrhetinic acid] , what activity at 30 min, 312.5 µM is on record?
0%

====

- Tgt: CYP2C9 (Homo sapiens, UniProt P11712)
- Construct: tissue iPhase Pharmaceutical Services (Beijing, China) Lot # 7MMC011; host or cells: pooled human liver microsomes
- Sequence (P11712 whole entry): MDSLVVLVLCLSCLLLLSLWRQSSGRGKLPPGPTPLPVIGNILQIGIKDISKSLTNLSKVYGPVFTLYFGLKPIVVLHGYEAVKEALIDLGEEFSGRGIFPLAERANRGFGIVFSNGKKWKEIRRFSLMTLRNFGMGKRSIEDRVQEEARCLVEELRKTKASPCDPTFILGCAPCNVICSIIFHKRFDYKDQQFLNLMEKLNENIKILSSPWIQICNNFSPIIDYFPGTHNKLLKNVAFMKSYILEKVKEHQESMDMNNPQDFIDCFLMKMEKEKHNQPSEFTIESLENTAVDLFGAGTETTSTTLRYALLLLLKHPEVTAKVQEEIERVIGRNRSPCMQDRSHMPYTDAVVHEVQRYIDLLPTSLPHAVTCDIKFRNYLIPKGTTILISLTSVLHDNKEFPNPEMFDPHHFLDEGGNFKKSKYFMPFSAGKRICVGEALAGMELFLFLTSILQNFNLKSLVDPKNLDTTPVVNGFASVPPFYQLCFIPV
- Assay: Inhibition of CYP activities by GA in HLMs (tolbutamide)
- Assay type: biochemical
- Recorded Conditions: human, human liver microsomes, probe tolbutamide 25 µM; CYP2C9-30min; GA 0.1000; vs control; read-out: Relative activity (%)
Endpoint Name: activity at 30 min, 0.1 µM

// returns reported activity at 30 min, 0.1 µM for input CC1(C)[C@@H](O)CC[C@]2(C)[C@H]3C(=O)C=C4[C@@H]5C[C@@](C)(C(=O)O)CC[C@]5(C)CC[C@@]4(C)[C@]3(C)CC[C@@H]12
114%

====

- Tgt: CYP3A4 (Homo sapiens)
- Construct: was investigated in HLMs; tissue iPhase Pharmaceutical Services (Beijing, China) Lot # 7MMC011; host or cells: pooled human liver microsomes
- Assay: Inhibition of CYP activities by GA in HLMs (midazolam)
- Format: biochemical
- Recorded Conditions: human, human liver microsomes, probe midazolam (10 µM); CYP3A4-30min; GA 31.25; vs control; read-out: Relative activity (%)
Endpoint Name: activity at 30 min, 31.25 µM (%)
Number in %, nothing else.

Requested read-out: activity at 30 min, 31.25 µM. Entry: CC1(C)[C@@H](O)CC[C@]2(C)[C@H]3C(=O)C=C4[C@@H]5C[C@@](C)(C(=O)O)CC[C@]5(C)CC[C@@]4(C)[C@]3(C)CC[C@@H]12 [GA, Glycyrrhetinic acid]
13.5

====

- Assay: HK-2 cell viability, MTT assay, with or without co-cultured HLMs
- Type: cell-based, human
- Recorded Conditions: human, BAK 75 µM, with HLM, raw data; read-out: cell viability(%), single values
- Method: HK-2 cells obtained from Peking Union Medical College were maintained in D/F12 medium containing 10% fetal bovine serum, 2 mM glutamine and 1 × 10^5 U/L penicillin and streptomycin at 37 °C in a 5% CO2 atmosphere. […] The samples containing HLMs were prepared in an ice bath, and three replicates were tested for each dose. […] Subsequently, 150 µL of 4% isopropanol was added to cells for 15 min at 37 °C, and the absorbance at 570 nm was then read by a microplate reader (Multiskan MK3, Thermo, USA). […]
Endpoint Name: viability at 4 h, 75 µM (%)
Express it in %; write the number only.

Given the molecule C=C[C@@](C)(/C=C/c1ccc(O)cc1)CCC=C(C)C [BAK, Bakuchiol] , what is its reported viability at 4 h, 75 µM?
108

====

- Tgt: CYP3A4 (Homo sapiens, UniProt P08684)
- Construct: was investigated in HLMs; tissue iPhase Pharmaceutical Services (Beijing, China) Lot # 7MMC011; host or cells: pooled human liver microsomes
- Sequence (P08684 whole entry): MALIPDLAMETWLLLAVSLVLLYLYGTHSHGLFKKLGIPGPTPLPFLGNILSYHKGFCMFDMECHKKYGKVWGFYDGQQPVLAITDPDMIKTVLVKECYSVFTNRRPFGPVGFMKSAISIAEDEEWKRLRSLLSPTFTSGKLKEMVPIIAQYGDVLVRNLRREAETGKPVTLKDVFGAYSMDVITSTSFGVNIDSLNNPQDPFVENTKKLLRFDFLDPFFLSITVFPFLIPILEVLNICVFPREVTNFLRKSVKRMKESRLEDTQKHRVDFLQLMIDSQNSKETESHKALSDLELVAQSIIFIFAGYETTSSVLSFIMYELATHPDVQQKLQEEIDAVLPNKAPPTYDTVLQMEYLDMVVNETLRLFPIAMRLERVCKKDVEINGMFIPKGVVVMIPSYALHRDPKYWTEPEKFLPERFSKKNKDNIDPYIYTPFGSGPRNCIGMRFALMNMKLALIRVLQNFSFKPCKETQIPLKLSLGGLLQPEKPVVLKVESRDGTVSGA
- Assay: Inhibition of CYP activities by GA in HLMs (midazolam)
- Type: biochemical
- Recorded Conditions: human, human liver microsomes, probe midazolam (10 µM); CYP3A4-30min; GA 312.50; vs control; read-out: Relative activity (%)
Endpoint Name: activity at 30 min, 312.5 µM

Entry CC1(C)[C@@H](O)CC[C@]2(C)[C@H]3C(=O)C=C4[C@@H]5C[C@@](C)(C(=O)O)CC[C@]5(C)CC[C@@]4(C)[C@]3(C)CC[C@@H]12 : reported activity at 30 min, 312.5 µM = ?
0.261%

The reported numbers originate from paper PMC5126668.
